Assay target: full-length Mtb IMPDH (Mycobacterium tuberculosis, UniProt P9WKI7)
Assay summary: Inhibition constants toward full-length Mtb IMPDH
Type: biochemical
Study conditions: IMP as the substrate, read-out: Ki with IMP as the substrate

| Compound | Ki, µM |
| --- | --- |
| CC(Oc1ccc(-c2cn(C)cn2)cc1)C(=O)Nc1nc(-c2ccc(Br)cc2)c[nH]1 (centres unmarked) | 0.61 |
| Brc1ccc(-c2c[nH]cn2)cc1 | 572 |

###

Assay target: Mth IMPDH ΔCBS (Mycolicibacterium thermoresistibile, UniProt G7CNL4, R236G)
Assay summary: Inhibition constants (Ki) and mode of inhibition against Mth IMPDH ΔCBS with respect to IMP and NAD+
Format: biochemical, Mycobacterium thermoresistible
Study conditions: with respect to IMP; fixed saturating NAD+ ([…])

| Molecule | Result unit | IMP αKi |
| --- | --- | --- |
| O=C(O)c1cc2sccc2s1 [Compound 14] | µM | 238 |
| CC(=O)Nc1cc(C)ccc1O [Compound 18] | µM | 554 |
| CC(Oc1ccc(-c2cn(C)cn2)cc1)C(=O)Nc1nc(-c2ccc(Br)cc2)c[nH]1 (stereo not drawn) [Compound 31] | µM | 0.30 |
| Oc1ccc2ccc(O)cc2c1 [Compound 11] | µM | 361 |
| Brc1ccc(-c2c[nH]cn2)cc1 [Compound 2] | µM | 609 |
| CC1(C)Cc2cccc(CO)c2O1 [Compound 19] | µM | 126 |
